- System: Schistosoma mansoni
- Assay Notes: WHO-TDR: Schistosomiasis
- Assay type: functional
- Design: concentration or dose not given beside the values
Endpoint: % Inhibition (%)
# value in %; strip the unit string

> print(dat)
                                   molecule      endpoint  experimental.value
1  CC1CC(C)CN(S(=O)(=O)CCCOc2ccc3c(c2)OCO3)C1 (centres undefined)  % Inhibition                 100
2       CCOC(=O)c1sc(Nc2nc3c(F)cccc3s2)nc1C  % Inhibition                   0
3  COc1ccccc1OCC(=O)Nc1nc(CSCc2ccc(F)cc2)cs1  % Inhibition                   0
4  Cc1c(C(=O)N2CCC(C)CC2)sc2nc(-c3ccc(F)cc3)cn12  % Inhibition                   0
5  Cc1ccc(-c2ccc(=O)n(CCCNS(=O)(=O)c3ccc(Cl)s3)n2)cc1  % Inhibition                   0
6  CN(C)CCCN(C(=O)CCOc1ccccc1)c1nc2cc3c(cc2s1)OCO3  % Inhibition                  75

Notebook entry, Schistosoma mansoni assay: % Inhibition of CC1CCN(C(C)CNC(=O)Nc2cccc(Cl)c2)CC1 (centres undefined) = ?
0

And CCOc1ccc(N2CC(CNS(=O)(=O)c3cccc(C(F)(F)F)c3)CC2=O)cc1 (centres undefined) ?
0

And CCOc1cccc2sc(Nc3nc4ccc5sc(C)nc5c4s3)nc12 ?
0

And C=CCN1C(=O)C(C)(C)COc2cc(NS(=O)(=O)c3ccccc3Cl)ccc21 ?
0

And CC(=O)c1ccc(C(=O)N(Cc2cccnc2)c2nc3c(F)cc(F)cc3s2)cc1 ?
0

And COc1cccc2sc(Nc3sc4c(c3C(N)=O)CCCC4)nc12 ?
12.5

And O=C(COc1ccc(Cl)cc1Cl)N(Cc1ccccn1)c1nc2ccccc2s1 ?
0

And Cc1cccc(-n2nc3c(c2NC(=O)Nc2cccc(Cl)c2)CSC3)c1 ?
25
